Listed here are molecules together with their documented pEC50.
EXPERIMENTAL_PROTOCOL: Induction of TNF-alpha production in healthy human PBMC incubated for 16 hrs
Format: functional, tissue-based
pEC50: −log10 of the molar value.
MEASURED_PROPERTY: pEC50

[[record]]
smiles = "CC(C)(C)C(=O)OCO[P@]1(=O)OC[C@H]2O[C@@H](n3cnc4c(N)ncnc43)[C@H](F)[C@@H]2O[P@](=O)(OCOC(=O)C(C)(C)C)OC[C@H]2O[C@@H](n3cnc4c(N)ncnc43)[C@H](F)[C@@H]2O1"
readout_relation = "="
result = 6.96

[[record]]
smiles = "Nc1nc2c(ncn2[C@@H]2O[C@@H]3COP(=O)(O)O[C@@H]4[C@H](O)[C@@H](COP(=O)(O)O[C@@H]2[C@@H]3O)O[C@H]4n2cnc3c(N)ncnc32)c(=O)[nH]1"
readout_relation = "="
result = 4.14

[[record]]
smiles = "CC(C)(C)C(=O)OCS[P@@]1(=O)OC[C@H]2O[C@@H](n3cnc4c(N)ncnc43)[C@H](F)[C@@H]2O[P@](=O)(SCOC(=O)C(C)(C)C)OC[C@H]2O[C@@H](n3cnc4c(N)ncnc43)[C@H](F)[C@@H]2O1"
readout_relation = "="
result = 7.00

[[record]]
smiles = "CC(C)(C)C(=O)OCO[P@@]1(=O)OC[C@H]2O[C@@H](n3cnc4c(N)ncnc43)[C@H](F)[C@@H]2O[P@](=O)(OCOC(=O)C(C)(C)C)OC[C@H]2O[C@@H](n3cnc4c(N)ncnc43)[C@H](F)[C@@H]2O1"
readout_relation = "="
result = 6.62

[[record]]
smiles = "Nc1nc2c(ncn2[C@@H]2O[C@@H]3COP(=O)(O)O[C@H]4[C@@H](O)[C@H](n5cnc6c(N)ncnc65)O[C@@H]4COP(=O)(O)O[C@H]3[C@H]2O)c(=O)[nH]1"
readout_relation = "<"
result = 3.52

[[record]]
smiles = "CCC(CC)C(=O)OCO[P@@]1(=O)OC[C@H]2O[C@@H](n3cnc4c(N)ncnc43)[C@H](F)[C@@H]2O[P@](=O)(OCOC(=O)C(CC)CC)OC[C@H]2O[C@@H](n3cnc4c(N)ncnc43)[C@H](F)[C@@H]2O1"
readout_relation = "="
result = 7.15

[[record]]
smiles = "Nc1ncnc2c1ncn2[C@@H]1O[C@@H]2CO[P@@](=O)(OCOC(=O)c3ccccc3)O[C@H]3[C@@H](F)[C@H](n4cnc5c(N)ncnc54)O[C@@H]3CO[P@](=O)(OCOC(=O)c3ccccc3)O[C@H]2[C@H]1F"
readout_relation = "="
result = 6.64

[[record]]
smiles = "CC(C)(C)C(=O)OCS[P@@]1(=O)OC[C@H]2O[C@@H](n3cnc4c(N)ncnc43)[C@H](F)[C@@H]2O[P@@](=O)(SCOC(=O)C(C)(C)C)OC[C@H]2O[C@@H](n3cnc4c(N)ncnc43)[C@H](F)[C@@H]2O1"
readout_relation = "="
result = 6.74

[[record]]
smiles = "Nc1ncnc2c1ncn2[C@@H]1O[C@@H]2CO[P@](=O)(S)O[C@H]3[C@@H](F)[C@H](n4cnc5c(N)ncnc54)O[C@@H]3CO[P@](=O)(S)O[C@H]2[C@H]1F"
readout_relation = "="
result = 4.57


----------
ASSAYED_TARGET: Stimulator of interferon genes protein (Homo sapiens)
Sequence (Q86WV6 whole entry): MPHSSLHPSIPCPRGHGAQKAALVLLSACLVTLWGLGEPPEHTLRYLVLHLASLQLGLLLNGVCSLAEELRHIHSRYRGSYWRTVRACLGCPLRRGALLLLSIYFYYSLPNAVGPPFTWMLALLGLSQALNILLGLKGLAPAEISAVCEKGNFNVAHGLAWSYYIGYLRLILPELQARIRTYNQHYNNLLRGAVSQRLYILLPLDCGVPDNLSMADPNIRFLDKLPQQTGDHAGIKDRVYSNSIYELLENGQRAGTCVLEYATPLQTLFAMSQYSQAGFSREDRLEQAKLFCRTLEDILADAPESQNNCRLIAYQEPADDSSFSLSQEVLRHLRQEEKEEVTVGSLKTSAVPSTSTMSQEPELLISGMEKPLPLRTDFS
EXPERIMENTAL_PROTOCOL: Activation of wild-type human STING expressed in HEK293T cells co-expressing IRF3-activated ISRE assessed as IRF3 reporter activation measured after 7 hrs by luciferase reporter gene assay
Assay type: cell-based
MEASURED_PROPERTY: log10 of EC50 (log10 of the value in nM)

[[record]]
smiles = "CC(C)OC(=O)OCO[P@]1(=O)OC[C@H]2O[C@@H](n3cnc4c(N)ncnc43)[C@H](F)[C@@H]2OP(=O)(O)OC[C@H]2O[C@@H](n3cnc4c(N)ncnc43)[C@H](F)[C@@H]2O1"
measured_property = "log10 of EC50"
result = 2.51

[[record]]
smiles = "CC(C)(C)C(=O)OCO[P@]1(=O)OC[C@H]2O[C@@H](n3cnc4c(N)ncnc43)[C@H](F)[C@@H]2O[P@](=O)(OCOC(=O)C(C)(C)C)OC[C@H]2O[C@@H](n3cnc4c(N)ncnc43)[C@H](F)[C@@H]2O1"
measured_property = "log10 of EC50"
result = 1.30

[[record]]
smiles = "CC(C)(C)C(=O)OCS[P@@]1(=O)OC[C@H]2O[C@@H](n3cnc4c(N)ncnc43)[C@H](F)[C@@H]2O[P@](=O)(SCOC(=O)C(C)(C)C)OC[C@H]2O[C@@H](n3cnc4c(N)ncnc43)[C@H](F)[C@@H]2O1"
measured_property = "log10 of EC50"
result = 1.60

[[record]]
smiles = "Nc1ncnc2c1ncn2[C@@H]1O[C@@H]2COP(=O)(O)O[C@H]3[C@@H](F)[C@H](n4cnc5c(N)ncnc54)O[C@@H]3COP(=O)(O)O[C@H]2[C@H]1F"
measured_property = "log10 of EC50"
result = 3.90

[[record]]
smiles = "Nc1ncnc2c1ncn2[C@@H]1O[C@@H]2CO[P@@](=O)(OCOC(=O)c3ccccc3)O[C@H]3[C@@H](F)[C@H](n4cnc5c(N)ncnc54)O[C@@H]3CO[P@](=O)(OCOC(=O)c3ccccc3)O[C@H]2[C@H]1F"
measured_property = "log10 of EC50"
result = 1.60

[[record]]
smiles = "CCC(CC)C(=O)OCO[P@@]1(=O)OC[C@H]2O[C@@H](n3cnc4c(N)ncnc43)[C@H](F)[C@@H]2O[P@](=O)(OCOC(=O)C(CC)CC)OC[C@H]2O[C@@H](n3cnc4c(N)ncnc43)[C@H](F)[C@@H]2O1"
measured_property = "log10 of EC50"
result = 1.48

[[record]]
smiles = "Nc1ncnc2c1ncn2[C@@H]1O[C@@H]2CO[P@@](=O)(OCOC(=O)c3ccccc3)O[C@H]3[C@@H](F)[C@H](n4cnc5c(N)ncnc54)O[C@@H]3COP(=O)(O)O[C@H]2[C@H]1F"
measured_property = "log10 of EC50"
result = 2.60

[[record]]
smiles = "CC(C)(C)C(=O)OCS[P@@]1(=O)OC[C@H]2O[C@@H](n3cnc4c(N)ncnc43)[C@H](F)[C@@H]2O[P@@](=O)(SCOC(=O)C(C)(C)C)OC[C@H]2O[C@@H](n3cnc4c(N)ncnc43)[C@H](F)[C@@H]2O1"
measured_property = "log10 of EC50"
result = 1.85

[[record]]
smiles = "Nc1nc2c(ncn2[C@@H]2O[C@@H]3COP(=O)(O)O[C@@H]4[C@H](O)[C@@H](COP(=O)(O)O[C@@H]2[C@@H]3O)O[C@H]4n2cnc3c(N)ncnc32)c(=O)[nH]1"
measured_property = "log10 of EC50"
result = 4.07

